- System: MRC-5 fibroblasts
- assay protocol: Cytotoxicity against MRC-5 fibroblasts
- condition label: read-out: MRC-5 EC50; Table 5; cytotoxicity
readout name: EC50

[[record]]
molecule = "Nc1ncnc2c1c(-c1ccc3ccccc3c1)cn2[C@@H]1O[C@H](CO)[C@@H](O)[C@H]1O [FH8461]"
subject_of_test = "MRC-5 fibroblasts"
endpoint_value = "7.53 µM"


----------
- System: T. cruzi Tulahuen CL2 β galactosidase strain
- assay protocol: T. cruzi Tulahuen CL2 β galactosidase strain on MRC-5SV2 cells (CPRG)
- Format: cell-based, Trypanosoma cruzi
- condition label: Trypanosoma cruzi, TULAHUEN, MRC-5 SV2; Table 5; average of 2-4 independent replicates
pEC50: −log10 of the molar value.
readout name: pEC50

[[record]]
molecule = "Nc1ncnc2c1c(-c1ccc(F)cn1)cn2[C@@H]1O[C@H](CO)[C@@H](O)[C@H]1O [MS1037]"
qualifying_sign = "="
endpoint_value = 4.50

[[record]]
molecule = "Nc1ccnc2c1c(I)cn2[C@@H]1O[C@H](CO)[C@@H](O)[C@H]1O [FH5319]"
qualifying_sign = "="
endpoint_value = 7.40

[[record]]
molecule = "Nc1ncnc2c1c(-c1ccccn1)cn2[C@@H]1O[C@H](CO)[C@@H](O)[C@H]1O [TH1008]"
qualifying_sign = "="
endpoint_value = 5.30

[[record]]
molecule = "COc1ncnc2c1c(Cl)cn2[C@@H]1O[C@H](CO)[C@@H](O)[C@H]1O [FH8446]"
qualifying_sign = "="
endpoint_value = 4.90

[[record]]
molecule = "Nc1ncnc2c1c(Br)cn2[C@@H]1O[C@H](CO)[C@@H](O)[C@H]1O [TH1003]"
qualifying_sign = "="
endpoint_value = 6.41

[[record]]
molecule = "Nc1ncnc2c1c(-c1ccccc1)cn2[C@@H]1O[C@H](CO)[C@@H](O)[C@H]1O [TH1004]"
qualifying_sign = "="
endpoint_value = 5.46

[[record]]
molecule = "CCCCOc1ncnc2c1c(Cl)cn2[C@@H]1O[C@H](CO)[C@@H](O)[C@H]1O [FH9530]"
qualifying_sign = "="
endpoint_value = 6.35

[[record]]
molecule = "Nc1ncnc2c1c(-c1cccnc1)cn2[C@@H]1O[C@H](CO)[C@@H](O)[C@H]1O [FH4185]"
qualifying_sign = "="
endpoint_value = 4.81

[[record]]
molecule = "Nc1ncnc2c1c(-c1ccc(F)cc1)cn2[C@@H]1O[C@H](CO)[C@@H](O)[C@H]1O [MS1001]"
qualifying_sign = "="
endpoint_value = 6.31

[[record]]
molecule = "Nc1ncnc2c1c(-c1ccc(Cl)cc1)cn2[C@@H]1O[C@H](CO)[C@@H](O)[C@H]1O [TH1012]"
qualifying_sign = "="
endpoint_value = 6.33

[[record]]
molecule = "Cc1ccc(-c2cn([C@@H]3O[C@H](CO)[C@@H](O)[C@H]3O)c3ncnc(N)c23)cc1 [TH1011]"
qualifying_sign = "="
endpoint_value = 5.82

[[record]]
molecule = "CCCOc1ncnc2c1c(Cl)cn2[C@@H]1O[C@H](CO)[C@@H](O)[C@H]1O [FH9532]"
qualifying_sign = "="
endpoint_value = 5.98

[[record]]
molecule = "Nc1ncnc2c1c(-c1ccc(Cl)c(Cl)c1)cn2[C@@H]1O[C@H](CO)[C@@H](O)[C@H]1O [FH3147]"
qualifying_sign = "="
endpoint_value = 6.72

[[record]]
molecule = "COc1ncnc2c1c(Br)cn2[C@@H]1O[C@H](CO)[C@@H](O)[C@H]1O [FH9528]"
qualifying_sign = "="
endpoint_value = 4.62

[[record]]
molecule = "Nc1ncnc2c1c(-c1cccc(Cl)c1)cn2[C@@H]1O[C@H](CO)[C@@H](O)[C@H]1O [FH8459]"
qualifying_sign = "="
endpoint_value = 5.85

[[record]]
molecule = "Nc1ncnc2c1c(-c1cccc(Cl)n1)cn2[C@@H]1O[C@H](CO)[C@@H](O)[C@H]1O [MS1034]"
qualifying_sign = "<"
endpoint_value = 4.19

[[record]]
molecule = "Nc1ncnc2c1c(-c1cc(Cl)cc(Cl)c1)cn2[C@@H]1O[C@H](CO)[C@@H](O)[C@H]1O [FH8460]"
qualifying_sign = "="
endpoint_value = 5.76

[[record]]
molecule = "Nc1ncnc2c1c(-c1cnccn1)cn2[C@@H]1O[C@H](CO)[C@@H](O)[C@H]1O [FH3179]"
qualifying_sign = "="
endpoint_value = 6.07

